# testedOn: T1, monkey LAG-3 on cells (HEK293-cLAG-3 stable cell line) (monkey, UniProt P18627 24-525 (human entry))
# T1 construct: Full-length monkey (Chinese monkey) LAG-3 gene expressed on HEK293 cells
# T1 chain: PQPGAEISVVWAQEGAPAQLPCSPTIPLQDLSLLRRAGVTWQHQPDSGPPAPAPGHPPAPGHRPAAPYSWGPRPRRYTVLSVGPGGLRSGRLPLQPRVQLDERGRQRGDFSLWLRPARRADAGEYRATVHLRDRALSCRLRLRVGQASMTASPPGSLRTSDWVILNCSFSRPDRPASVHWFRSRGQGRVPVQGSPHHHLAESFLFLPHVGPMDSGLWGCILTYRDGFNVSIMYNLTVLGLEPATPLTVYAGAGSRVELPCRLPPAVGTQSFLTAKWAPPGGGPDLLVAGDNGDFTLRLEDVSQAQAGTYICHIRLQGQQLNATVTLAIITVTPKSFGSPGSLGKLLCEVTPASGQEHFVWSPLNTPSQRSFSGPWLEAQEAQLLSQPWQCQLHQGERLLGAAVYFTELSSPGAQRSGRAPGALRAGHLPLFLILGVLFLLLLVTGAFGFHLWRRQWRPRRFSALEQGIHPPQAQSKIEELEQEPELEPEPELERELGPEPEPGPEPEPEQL
# assayExplanation: FACS, HEK293-cLAG-3, antibody 1.600 nM
metric: Mean fluorescence intensity
Please give the numeric answer without any surrounding text.

Sample records with Mean fluorescence intensity:
556F6B8 mouse-human chimeric antibody (antibody, V domains shown, also called mAb123-556F6B8; 556F8B8) VH: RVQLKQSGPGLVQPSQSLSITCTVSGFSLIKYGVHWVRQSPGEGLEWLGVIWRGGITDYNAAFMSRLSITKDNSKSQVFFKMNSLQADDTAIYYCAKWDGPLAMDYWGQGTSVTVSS VL: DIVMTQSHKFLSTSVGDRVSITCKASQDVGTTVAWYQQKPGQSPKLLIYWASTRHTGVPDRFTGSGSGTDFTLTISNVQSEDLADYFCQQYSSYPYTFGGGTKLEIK : 19.2
405B8H3 mouse-human chimeric antibody (antibody, V domains shown, also called mAb103-405B8H3) VH: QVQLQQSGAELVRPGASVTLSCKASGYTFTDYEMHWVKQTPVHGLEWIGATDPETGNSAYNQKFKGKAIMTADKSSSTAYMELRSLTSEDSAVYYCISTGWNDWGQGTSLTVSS VL: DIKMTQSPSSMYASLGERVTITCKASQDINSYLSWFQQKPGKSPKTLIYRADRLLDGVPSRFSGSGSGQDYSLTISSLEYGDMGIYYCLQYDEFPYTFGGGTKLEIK : 29.4
409D4E10 mouse-human chimeric antibody (antibody, V domains shown, also called mAb112-409D4E10) VH: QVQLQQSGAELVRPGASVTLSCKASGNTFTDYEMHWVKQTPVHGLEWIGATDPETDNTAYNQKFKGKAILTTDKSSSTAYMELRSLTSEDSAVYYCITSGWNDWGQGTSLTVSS VL: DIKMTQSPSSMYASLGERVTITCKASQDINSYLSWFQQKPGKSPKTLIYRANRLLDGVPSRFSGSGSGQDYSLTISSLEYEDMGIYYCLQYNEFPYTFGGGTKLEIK : 25.8

# query: Mean fluorescence intensity of entry 105F1E10 mouse-human chimeric antibody (antibody, V domains shown, also called mAb009-105F1E10) VH: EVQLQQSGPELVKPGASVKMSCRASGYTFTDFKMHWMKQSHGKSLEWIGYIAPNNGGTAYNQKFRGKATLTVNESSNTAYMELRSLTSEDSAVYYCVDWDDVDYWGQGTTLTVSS VL: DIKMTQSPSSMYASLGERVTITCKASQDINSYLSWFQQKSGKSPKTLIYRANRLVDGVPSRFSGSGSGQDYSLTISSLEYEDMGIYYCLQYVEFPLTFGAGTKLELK
14.7

I am curious: what Mean fluorescence intensity value has been reported for 409B11E12 mouse-human chimeric antibody (antibody, V domains shown, also called mAb104-409B11E12) VH: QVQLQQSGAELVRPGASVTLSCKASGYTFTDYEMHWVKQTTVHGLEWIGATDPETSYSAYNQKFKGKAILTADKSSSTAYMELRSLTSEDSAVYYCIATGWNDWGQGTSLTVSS VL: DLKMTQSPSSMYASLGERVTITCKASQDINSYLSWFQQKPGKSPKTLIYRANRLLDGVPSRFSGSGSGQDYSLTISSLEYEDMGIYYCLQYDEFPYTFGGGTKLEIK ?
32.8
